# Assay Target: CDK2/Cyclin E1(14-475) (Homo sapiens)
# Assay Remarks: Caliper LabChip EZ Reader mobility shift assay, inhibition of CDK2/Cyclin E1 activity
# Format: biochemical
# Reported Conditions: class symbols A-D
Attribute Measured: IC50

Check out these entries, answers already filled in.
molecule="CNC(=O)[C@H](CCCc1ccccc1)NC(=O)C1CN(C(=O)Cc2c[nH]c3cc(Cl)ccc23)CC2CN(C(=O)c3nn(C)c4ccccc34)CC21 (stereo partly drawn)" experimental_result="> 10 µM"
molecule="CNC(=O)[C@H](CCCc1ccccc1)NC(=O)C1CN(C(=O)Cc2c[nH]c3cc(Cl)ccc23)CC2CN(C(=O)c3cn4ccncc4n3)CC21 (stereo partly drawn)" experimental_result="> 10 µM"

IC50 for CNC(=O)[C@H](CCCc1ccccc1)NC(=O)C1CN(C(=O)Cc2c(C)[nH]c3ccccc23)CC2CN(C(=O)c3ccc(OC(C)C)c(OC)c3)CC21 (stereo partly drawn) ?
0.5 to 5 µM

Subsequent entry: CNC(=O)[C@H](CCCc1ccccc1)NC(=O)C1CN(C(=O)Cc2c[nH]c3cc(Cl)ccc23)CC2CN(C(=O)c3ccc(-c4ccncc4)cc3)CC21 (stereo partly drawn)
> 10 µM

Subsequent entry: CNC(=O)[C@@H](CCCC1CCCC1)NC(=O)C1CN(C(=O)Cc2c[nH]c3cc(Cl)ccc23)CC2CN(C(=O)c3ccc(OC(C)C)c(OC)c3)CC21 (stereo partly drawn)
0.5 to 5 µM

Subsequent entry: CNC(=O)[C@H](CCCc1ccccc1)NC(=O)C1CN(C(=O)c2c[nH]c3cc(Cl)ccc23)CC2CN(C(=O)c3ccc(OC(C)C)c(OC)c3)CC21 (stereo partly drawn)
> 10 µM

* * *

Property: IC50; scope: individual compounds
# Assay Target: CDK2/Cyclin E1(14-475) (Homo sapiens, UniProt P24941)
# Assay Remarks: Caliper LabChip EZ Reader mobility shift assay, inhibition of CDK2/Cyclin E1 activity
# Format: biochemical
# Reported Conditions: class symbols A-D

Check out these entries, answers already filled in.
compound="CNC(=O)[C@H](CCCc1ccccc1)NC(=O)C1CN(C(=O)Cc2c[nH]c3cc(Cl)ccc23)CC2CN(C(=O)c3ccc(OCCC4CC4)c(OC)c3)CC21 (stereo partly drawn) [I-9]" experimental_result="5 to 10 µM"
compound="CNC(=O)[C@H](CCCc1cccc2[nH]nnc12)NC(=O)C1CN(C(=O)Cc2c[nH]c3cc(Cl)ccc23)CC2CN(C(=O)c3ccc(OC(C)C)c(OC)c3)CC21 (stereo partly drawn) [I-139]" experimental_result="0.5 to 5 µM"
compound="CNC(=O)[C@H](CCCc1ccccc1)NC(=O)C1CN(C(=O)Cc2c[nH]c3cc(Cl)ccc23)CC2CN(C(=O)c3nc4ccccc4[nH]3)CC21 (stereo partly drawn) [I-12]" experimental_result="> 10 µM"

IC50 for CNC(=O)[C@H](CCCc1ccccc1)NC(=O)C1CN(C(=O)Cc2c[nH]c3cc(Cl)ccc23)CC2CN(C(=O)c3cc(C4CC4)[nH]n3)CC21 (stereo partly drawn) [I-30] ?
> 10 µM

Subsequent entry: CNC(=O)[C@H](CCCc1ccccc1)NC(=O)C1CN(C(=O)Cc2c[nH]c3cc(Cl)ccc23)CC2CN(C(=O)c3cc4ccccc4[nH]3)CC21 (stereo partly drawn) [I-61]
> 10 µM

Subsequent entry: COc1cc(C(=O)N2CC3CN(C(=O)Cc4c[nH]c5cc(Cl)ccc45)CC(C(=O)NC(CCCc4ccccc4)c4ccccn4)C3C2)ccc1OC(C)C (stereo not drawn) [I-150]
0.5 to 5 µM

Subsequent entry: CNC(=O)[C@H](CCCc1ccccc1)NC(=O)C1CN(C(=O)Cc2cccnc2)CC2CN(C(=O)c3ccc(OC(C)C)c(OC)c3)CC21 (stereo partly drawn) [I-224]
> 10 µM

Subsequent entry: CNC(=O)[C@H](CCCc1ccccc1)NC(=O)C1CN(C(=O)Cc2c[nH]c3cc(Cl)ccc23)CC2CN(C(=O)c3ccc4[nH]ncc4c3)CC21 (stereo partly drawn) [I-8]
> 10 µM

Subsequent entry: CNC(=O)[C@H](CCCc1ccccc1)NC(=O)C1CN(C(=O)c2ccn(C)c2)CC2CN(C(=O)c3ccc(OC(C)C)c(OC)c3)CC21 (stereo partly drawn) [I-215]
> 10 µM
